Known pKd of a selection of binders
biological target: T1, human PD-1_HIS (human, UniProt Q15116 25-167, limits assumed); test: bio-layer interferometry (ForteBio), human PD-1_HIS in solution, IgG on sensor tip
T1 construct: not shown: His tag
T1 sequence (Q15116 25-167 limits assumed): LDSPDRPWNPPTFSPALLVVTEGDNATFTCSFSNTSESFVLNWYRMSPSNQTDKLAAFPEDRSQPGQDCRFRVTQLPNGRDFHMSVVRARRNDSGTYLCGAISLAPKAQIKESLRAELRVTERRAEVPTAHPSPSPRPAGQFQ
Note on units: pKd is unitless, being -log10 of a concentration expressed in mol/L.

Consider the reported pKd for these binders:
- BINDER: "Antibody B, IgG1 format expressed in yeast (antibody, V domains shown, Tested in IgG1 format, expressed in yeast) VH: QVQLVQSGAEVKKPGASVKVSCKASGYTFEGYYMHWVRQAPGQGLEWMGIINPEGGETSYAQKFQGRVTMTRDTSISTAYMELSRLRSDDTAVYYCAKEGVADGYGLVDVWGQGTMVTVSS VL: EIVLTQSPATLSLSPGERATLSCRASQSVSSYLAWYQQKPGQAPRLLIYDASKRATGIPARFSGSGSGTDFTLTISSLEPEDFAVYYCDQRNNWPLTFGGGTKVEIK"
  pKd: 8.85
- BINDER: "Antibody A, IgG1 format expressed in yeast (antibody, V domains shown, Tested in IgG1 format, expressed in yeast) VH: QVQLVQSGAEVKKPGASVKVSCKASGYTFTSYYMHWVRQAPGQGLEWMGIINPSGGSTSYAQKFQGRVTMTRDTSTSTVYMELSSLRSEDTAVYYCAKEGVADGYGLVDVWGQGTMVTISS VL: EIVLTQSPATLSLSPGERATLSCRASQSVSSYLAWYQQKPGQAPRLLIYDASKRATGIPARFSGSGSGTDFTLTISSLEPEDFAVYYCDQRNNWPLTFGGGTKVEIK"
  pKd: 8.37
- BINDER: "Antibody F, IgG1 format expressed in yeast (antibody, V domains shown, Tested in IgG1 format, expressed in yeast) VH: QVQLVQSGAEVKKPGASVKVSCKASGYTFSAYYMHWVRQAPGQGLEWMGIINPDGGSTGYAQKFQGRVTMTRDTSTSTVYMELSSLRSEDTAVYYCAKEGVADGYGLVDVWGQGTMVTVSS VL: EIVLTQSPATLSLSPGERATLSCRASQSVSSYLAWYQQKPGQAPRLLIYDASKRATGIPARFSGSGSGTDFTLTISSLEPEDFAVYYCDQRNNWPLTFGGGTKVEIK"
  pKd: 8.80
- BINDER: "Antibody D, IgG1 format expressed in yeast (antibody, V domains shown, Tested in IgG1 format, expressed in yeast) VH: QVQLVQSGAEVKKPGASVKVSCKASGYTFEKYYMHWVRQAPGQGLEWMGIINPDGGSTGYAQKFQGRVTMTRDTSTSTVYMELSSLRSEDTAVYYCAKEGVADGYGLVDVWGQGTMVTVSS VL: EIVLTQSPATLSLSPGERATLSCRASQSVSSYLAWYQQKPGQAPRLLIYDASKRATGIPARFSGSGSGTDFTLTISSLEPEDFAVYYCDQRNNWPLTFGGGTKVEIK"
  pKd: 8.72
- BINDER: "Antibody C, IgG1 format expressed in yeast (antibody, V domains shown, Tested in IgG1 format, expressed in yeast) VH: QVQLVQSGAEVKKPGASVKVSCKASGYTFTAQYMHWVRQAPGQGLEWMGIINPSGGETGYAQKFQGRVTMTRDTSTSTVYMELSSLRSEDTAVYYCAKEGVADGYGLVDVWGQGTMVTVSS VL: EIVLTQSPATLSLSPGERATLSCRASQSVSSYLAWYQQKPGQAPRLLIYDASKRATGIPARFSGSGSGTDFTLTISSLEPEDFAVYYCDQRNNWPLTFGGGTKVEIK"
  pKd: 9.00

Problem: Input Antibody E, IgG1 format expressed in yeast (antibody, V domains shown, Tested in IgG1 format, expressed in yeast) VH: QVQLVQSGAEVKKPGASVKVSCKASGYTFTSNYMHWVRQAPGQGLEWMGIINPSEGSTGYAQKFQGRVTMTRDTSTSTVYMELSSLRSEDTAVYYCAKEGVADGYGLVDVWGQGTMVTVSS VL: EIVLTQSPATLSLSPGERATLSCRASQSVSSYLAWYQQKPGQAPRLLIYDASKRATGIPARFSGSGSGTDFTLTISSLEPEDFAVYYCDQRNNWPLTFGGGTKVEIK , output reported pKd.
Solution: 8.92

Numbers sourced from patent US20190040149A1.
